This collection of values is drawn from patent US20050180972A1.

- Test system: Karpas 299 cells
- TEST: Alamar Blue cytotoxicity assay, CD20-negative Karpas 299 cells
- Type: cell-based, human
- DETAILS: Homo sapiens, KARPAS-299; unconjugated drug; 2 h exposure, washed, additional 92 h; Karpas (CD20-); read-out: IC50
ASSAY READOUT: IC50

# IC50 of COc1cccc2c1C(=O)c1c(O)c3c(c(O)c1C2=O)C[C@@](O)(C(=O)CO)C[C@@H]3O[C@H]1C[C@H](N)[C@H](O)[C@H](C)O1 [Doxorubicin, doxorubicin, reference compound] = 650 nM

----------
- Test system: Raji cells
- TEST: Alamar Blue cytotoxicity assay, Raji cells
- Type: cell-based, human
- DETAILS: Homo sapiens; unconjugated drug; 2 h exposure, washed, additional 92 h; Raji (CD20+); read-out: IC50
ASSAY READOUT: IC50 (nM)
Expressed in nM, but write only the number.

Noted for COc1cccc2c1C(=O)c1c(O)c3c(c(O)c1C2=O)C[C@@](O)(C(=O)CO)C[C@@H]3O[C@H]1C[C@H](N)[C@H](O)[C@H](C)O1 [Doxorubicin, doxorubicin, reference compound] : its IC50 reads 200
